test: BSK_SAg_Proliferation: Cell Proliferation Assessment in the BioMAP Diversity Plus: SAg Assay (AID 2283095); settings: primary human HUVEC with PBMC;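 note: relative cell number as total protein by SRB absorbance in sub-confluent culture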
The source made the active and inactive calls. Rule for the calls: active = hit-call score of the fitted dose curve at least 0.9, where 1 is the maximum; inactive = score below 0.9.
Allowed answers: class 1 (active), class 0 (inactive)

Some solved entries appear below for comparison.
COc1ccc(OC)c(N=Nc2c(O)ccc3ccccc23)c1; class 1
CCCCCCCCCCCCCCCC(=O)OC/C=C(C)/C=C/C=C(C)/C=C/C1=C(C)CCCC1(C)C; class 1
O=C1OC2(c3ccccc31)c1ccc(O)c(Br)c1Oc1c2ccc(O)c1Br; class 1

Recorded test outcome, item O=C1OC[C@H](Cc2cccc(O)c2)[C@H]1Cc1cccc(O)c1
class 0

Recorded test outcome, item CCN(CC)C(=O)N(CC)CC
class 0

Recorded test outcome, item c1ccc2cc(Nc3ccc(Nc4ccc5ccccc5c4)cc3)ccc2c1
class 0

Recorded test outcome, item C=C(C)C(=O)OCCOCCOCCOCCOC(=O)C(=C)C
class 1

Recorded test outcome, item Oc1c(Cl)cc(Cl)c(Cl)c1Cc1c(O)c(Cl)cc(Cl)c1Cl
class 1

Recorded test outcome, item CS(=O)(=O)c1ccc(C2=C(c3ccccc3)C(=O)OC2)cc1
class 0

Recorded test outcome, item C1=CC2C3C=CC(C3)C2C1 (stereo unspecified)
class 0

Recorded test outcome, item O=C(Nc1ccc2c(O)c(N=Nc3ccc(N=Nc4ccc(S(=O)(=O)O)cc4)cc3)c(S(=O)(=O)O)cc2c1)c1ccccc1
class 0
